Counter-ions that a name gives are not always drawn.
VALUE TYPE: melting point

> print(dat)
                                   compound         result
1  CC(=O)OCCOCCOCCOCCOc1nsnc1C1=CCCN(C)C1 (as salt: hydrochloride) [CDD-0303-A, acetate hydrochloride]  55 to 55.5 °C
2  CCOCCOCCOCCOCCOc1nsnc1C1=CCCN(C)C1 (as salt: hydrochloride)  64.5 to 66 °C
3  CN1CCC=C(c2nsnc2OCCCCCCCCCCCCO)C1 (as salt: hydrochloride)    97 to 98 °C

// below: melting point requested for another compound
IN: Give its melting point value. Item: CC(=O)OCCCCCCCCCCCCOc1nsnc1C1=CCCN(C)C1 (as salt: hydrochloride) [CDD-0299-A, acetate hydrochloride]
OUT: 85 to 86 °C

----------
STUDY SYSTEM: M1 muscarinic receptors expressed in A9 L cells (Homo sapiens, UniProt P11229)
ASSAY METHOD TEXT: Phosphoinositide (PI) metabolism at M1 muscarinic receptors expressed in A9 L cells
MEASUREMENT SETUP: A9 L cells, Table 3
pEC50: −log10 of the molar value. Where a name gives a salt, the structure may show the parent alone.
VALUE TYPE: pEC50

Known pEC50 results, listed for orientation:
> print(dat)
                                   molecule  value.type  quantitative.readout
1  COc1nsnc1OCCOCCOCCOCCOc1nsnc1C1=CCCN(C)C1 [CDD-0304-A, hydrochloride]       pEC50                  7.19
2  CN1CCC=C(c2nsnc2OCCCCCCCCCCCCO)C1 [CDD-0297-A]       pEC50                  5.59

[a] CCOCCOCCOCCOCCOc1nsnc1C1=CCCN(C)C1 [CDD-0301-A, hydrochloride]
[b] CN1CCC=C(c2nsnc2OCCOCCOCCOCCO)C1 [CDD-0300-A, hydrochloride]
IN: Of a and b , whose reported pEC50 is numerically smaller? Return value: the label identifying the chosen record.
OUT: a

----------
STUDY SYSTEM: M1 muscarinic receptors expressed in A9 L cells (Homo sapiens, UniProt P11229)
Construct: expressed in transfected cells; host or cells: A9 L cells
ASSAY METHOD TEXT: Phosphoinositide (PI) metabolism at M1 muscarinic receptors expressed in A9 L cells
Format: cell-based
MEASUREMENT SETUP: A9 L cells, Table 3
Counter-ions that a name gives are not always drawn.
VALUE TYPE: Phosphoinositide metabolism Smax (%)

> print(dat)
                            compound                        value.type  unit.of.measure  quantitative.readout
1  CN1CCC=C(c2nsnc2OCCCCCCCCCCCCO)C1  Phosphoinositide metabolism Smax                %                   250

[1] CN1CCC=C(c2nsnc2OCCOCCOCCOCCO)C1 [CDD-0300-A, hydrochloride]
[2] COc1nsnc1OCCOCCOCCOCCOc1nsnc1C1=CCCN(C)C1 [CDD-0304-A, hydrochloride]
[3] CCOCCOCCOCCOCCOc1nsnc1C1=CCCN(C)C1 [CDD-0301-A, hydrochloride]
IN: Please list the entries, largest Phosphoinositide metabolism Smax first. Reply format: the labels, ordered as requested.
OUT: 2, 3, 1
(2: 600%, 3: 420%, 1: 240%)

----------
Sequence of the target: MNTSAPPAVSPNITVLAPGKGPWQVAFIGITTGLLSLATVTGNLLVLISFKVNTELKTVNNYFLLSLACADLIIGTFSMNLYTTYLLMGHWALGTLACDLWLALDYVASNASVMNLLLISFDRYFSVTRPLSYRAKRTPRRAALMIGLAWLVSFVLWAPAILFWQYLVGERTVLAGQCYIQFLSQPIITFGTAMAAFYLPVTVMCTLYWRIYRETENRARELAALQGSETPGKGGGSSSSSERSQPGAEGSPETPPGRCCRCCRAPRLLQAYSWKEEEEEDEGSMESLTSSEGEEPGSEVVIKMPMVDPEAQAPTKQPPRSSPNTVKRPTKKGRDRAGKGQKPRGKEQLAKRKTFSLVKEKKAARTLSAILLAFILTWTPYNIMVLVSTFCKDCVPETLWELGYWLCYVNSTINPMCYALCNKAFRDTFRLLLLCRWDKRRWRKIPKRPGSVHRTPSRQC
pKi: −log10 of the molar value. Structures can show the parent of a compound that is named as a salt.
VALUE TYPE: pKi

[A] CCOCCOCCOCCOCCOc1nsnc1C1=CCCN(C)C1 [CDD-0301-A, hydrochloride]
[B] COc1nsnc1OCCOCCOCCOCCOc1nsnc1C1=CCCN(C)C1 [CDD-0304-A, hydrochloride]
[C] CC(=O)OCCOCCOCCOCCOc1nsnc1C1=CCCN(C)C1 [CDD-0303-A, acetate hydrochloride]
[D] CN1CCC=C(c2nsnc2OCCOCCOCCOCCO)C1 [CDD-0300-A, hydrochloride]
[E] CC(=O)OCCCCCCCCCCCCOc1nsnc1C1=CCCN(C)C1 [CDD-0299-A, acetate hydrochloride]
IN: From the items above, give an ordering by pKi that starts at the lowest reported number. Use the labels to give the ranking in the order requested.
OUT: A, C, D, B, E
(A: 6.24, C: 6.55, D: 6.82, B: 7.42, E: 7.80)

Where do these numbers come from? They come from patent US6376675B2.
